Sourced from paper PMC4415586

# MEASUREMENT_TARGET: TNKS-1 (Homo sapiens, UniProt O95271)
# Sequence (O95271 whole entry): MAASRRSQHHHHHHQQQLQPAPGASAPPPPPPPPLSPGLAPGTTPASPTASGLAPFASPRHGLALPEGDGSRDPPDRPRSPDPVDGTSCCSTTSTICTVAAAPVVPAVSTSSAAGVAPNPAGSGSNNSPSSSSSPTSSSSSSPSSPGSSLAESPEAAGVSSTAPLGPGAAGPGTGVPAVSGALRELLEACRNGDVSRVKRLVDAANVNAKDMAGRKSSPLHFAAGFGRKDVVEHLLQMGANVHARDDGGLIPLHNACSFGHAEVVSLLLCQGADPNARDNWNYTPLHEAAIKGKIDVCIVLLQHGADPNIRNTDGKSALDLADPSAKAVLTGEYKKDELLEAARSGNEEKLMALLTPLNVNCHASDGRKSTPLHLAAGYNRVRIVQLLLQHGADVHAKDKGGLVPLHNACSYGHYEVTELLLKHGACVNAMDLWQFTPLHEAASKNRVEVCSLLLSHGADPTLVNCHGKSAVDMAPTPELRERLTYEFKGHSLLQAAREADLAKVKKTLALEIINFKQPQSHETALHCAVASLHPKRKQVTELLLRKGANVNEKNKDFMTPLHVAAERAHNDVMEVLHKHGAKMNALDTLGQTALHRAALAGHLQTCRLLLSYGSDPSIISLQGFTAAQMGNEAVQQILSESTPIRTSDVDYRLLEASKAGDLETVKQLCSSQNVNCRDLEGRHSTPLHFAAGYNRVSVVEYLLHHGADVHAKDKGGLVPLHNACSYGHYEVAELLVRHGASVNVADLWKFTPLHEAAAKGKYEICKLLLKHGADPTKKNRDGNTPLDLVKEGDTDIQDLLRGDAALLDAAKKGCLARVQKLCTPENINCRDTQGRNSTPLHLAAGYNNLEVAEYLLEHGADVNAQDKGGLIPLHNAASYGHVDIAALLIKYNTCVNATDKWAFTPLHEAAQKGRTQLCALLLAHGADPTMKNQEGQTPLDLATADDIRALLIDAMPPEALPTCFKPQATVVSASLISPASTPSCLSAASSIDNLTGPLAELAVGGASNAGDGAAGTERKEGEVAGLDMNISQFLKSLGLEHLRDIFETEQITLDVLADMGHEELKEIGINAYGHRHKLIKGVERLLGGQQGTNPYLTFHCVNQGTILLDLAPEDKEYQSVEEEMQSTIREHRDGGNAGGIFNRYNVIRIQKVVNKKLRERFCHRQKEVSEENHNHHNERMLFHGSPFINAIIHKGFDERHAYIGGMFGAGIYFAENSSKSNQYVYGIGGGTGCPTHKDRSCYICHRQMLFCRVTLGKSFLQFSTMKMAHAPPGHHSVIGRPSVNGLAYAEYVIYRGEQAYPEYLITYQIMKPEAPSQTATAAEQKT
# PROTOCOL: TNKS-1 autoribosylation assay
# STATED_CONDITIONS: read-out: % of inhibition TNKS-1, 1 μM, duplicate
OBSERVABLE: inhibition at 1 µM

1) O=c1[nH]c2cc(O)ccc2c2c1sc1ccccc12 [compound 9]	≤ 100%
2) O=c1[nH]c2ccccc2c2c1sc1ccc(O)cc12 [compound 8]	≤ 90%
3) Cc1ccc(-c2nc3c(sc4ccccc43)c(=O)[nH]2)cc1 [compound 22]	98%
4) O=c1[nH]c(-c2ccccc2)cc2c1sc1ccccc12 [compound 16]	84%

Next compound, inhibition at 1 µM to be filled in.
IN: Return inhibition at 1 µM (reported value) for this compound: COc1ccc2sc3c(O)nc4ccccc4c3c2c1 [compound 6]
OUT: > 70%
